The molecules listed here are annotated with their logP.
Measurement label: logP

{"Structure smiles string": "COc1ccc(C(=O)N2CCCCC2)cc1", "Endpoint result": 2.4}
{"Structure smiles string": "O=C(Cc1ccccc1)N1CCCCC1", "Endpoint result": 2.44}
{"Structure smiles string": "CCN(CC)C(=O)c1ccc(C)cc1", "Endpoint result": 2.38}
{"Structure smiles string": "CCNC(=O)CC1CCCCC1", "Endpoint result": 2.28}
{"Structure smiles string": "CCN(CC)C(=O)c1ccccc1Cl", "Endpoint result": 2.1}
{"Structure smiles string": "CN(C)C(=O)c1ccccc1Cl", "Endpoint result": 1.54}
{"Structure smiles string": "Cc1cccc(C(=O)N(C(C)C)C(C)C)c1", "Endpoint result": 3}
{"Structure smiles string": "CC(C)N(C(=O)c1ccccc1Cl)C(C)C", "Endpoint result": 3}
{"Structure smiles string": "CCNC(=O)Cc1ccccc1", "Endpoint result": 1}
{"Structure smiles string": "CCNC(=O)c1ccc(C)cc1", "Endpoint result": 1.38}
{"Structure smiles string": "CN(C)C(=O)CC1CCCCC1", "Endpoint result": 2.19}
{"Structure smiles string": "CCNC(=O)c1ccc(OC)cc1", "Endpoint result": 1.14}
{"Structure smiles string": "CCN(CC)C(=O)CC1CCCCC1", "Endpoint result": 3.12}
{"Structure smiles string": "O=C(c1ccccc1Cl)N1CCCCC1", "Endpoint result": 2.8}
{"Structure smiles string": "O=C(CC1CCCCC1)N1CCCCC1", "Endpoint result": 3.2}
{"Structure smiles string": "CCOc1ccccc1C(=O)N(C(C)C)C(C)C", "Endpoint result": 3}
{"Structure smiles string": "CCNC(=O)c1ccccc1OCC", "Endpoint result": 2.4}
{"Structure smiles string": "CCNC(=O)c1cccc(C)c1", "Endpoint result": 1.32}
{"Structure smiles string": "CC(C)N(C(=O)Cc1ccccc1)C(C)C", "Endpoint result": 3.1}
{"Structure smiles string": "CCOc1ccccc1C(=O)N1CCCCC1", "Endpoint result": 2.6}
{"Structure smiles string": "Cc1ccc(C(=O)N(C)C)cc1", "Endpoint result": 1.72}
{"Structure smiles string": "Cc1cccc(C(=O)N2CCCCC2)c1", "Endpoint result": 2.6}
{"Structure smiles string": "CC(C)N(C(=O)c1ccccc1)C(C)C", "Endpoint result": 2.5}
{"Structure smiles string": "O=C(c1ccccc1)N1CCCCC1", "Endpoint result": 2.2}
{"Structure smiles string": "Cc1ccc(C(=O)N(C(C)C)C(C)C)cc1", "Endpoint result": 2.5}
{"Structure smiles string": "CCN(CC)C(=O)Cc1ccccc1", "Endpoint result": 2.4}
{"Structure smiles string": "CN(C)C(=O)Cc1ccccc1", "Endpoint result": 1.48}
{"Structure smiles string": "Cc1cccc(C(=O)N(C)C)c1", "Endpoint result": 1.6}
{"Structure smiles string": "CCOc1ccccc1C(=O)N(CC)CC", "Endpoint result": 2.5}
{"Structure smiles string": "COc1ccc(C(=O)N(C(C)C)C(C)C)cc1", "Endpoint result": 2.8}
{"Structure smiles string": "Cc1ccc(C(=O)N2CCCCC2)cc1", "Endpoint result": 2.8}
